# experiment-description: Four hour solubility in buffered media (HPLC quantitation)
# Format: physicochemical
# test-context: pH 2.8 buffer, 25 °C, pH 2.8, aqueous buffer, thermodynamic from solid, pH 2.8 buffer, read-out: Solubility after 4 hours

compound: CN1CCN(c2ccc(C(=O)Nc3n[nH]c4ccc(Cc5cc(F)cc(F)c5)cc34)c(NC3CCOCC3)c2)CC1 [Form A]
solubility at 4 h: > 5000 µg/mL
